- assayed system: Torsin-1A (Homo sapiens)
- test method notes: small-molecule binders of mutant TOR1A in lysate, primary screen, cell lysate, small-molecule microarray, COS7 lysate, 635/667 nm fluorescence (AID 1150);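 also: score pools 667 nm emission and signal to noise measuring lysate protein binding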
- condition summary: COS7 hTOR1A mutant lysate, 635 nm fluorescence, higher = more signal
Class membership depends on composite z-score alone; the intervals are low value = under -0.1, medium value = from -0.1 up to 0.9, high value = 0.9 and over

compound	cat
O=C1O[C@H](c2ccccc2)[C@H](c2ccccc2)N2[C@H]1[C@@H](C(=O)Nc1nc3ccccc3s1)[C@]1(C(=O)Nc3ccc(C#CCCO)cc31)[C@H]2c1ccc(O)cc1	medium value
CN1C(=O)C2C=CC(C(O)c3cccc4ccccc34)N(N3CCCCC3)C2C1=O (stereo not given)	medium value
COc1ccc([Si](C)(C)[C@@H]2[C@@H](CC(=O)N(CCO)Cc3ccccc3)O[C@]3(C(=O)N(c4ccccc4)c4ccccc43)[C@H]2C)cc1	medium value
O=C1C2C=CC(C(O)c3ccc(F)cc3)N(n3cnnc3)C2C(=O)N1Cc1ccccc1 (stereo not given)	medium value
COC(=O)[C@@]1(Cc2ccc(F)cc2)[C@H]2c3cc(C(=O)N4CCCC4)n(CCc4ccc(O)c(O)c4)c3C[C@H]2CN1C(=O)c1ccccc1	medium value
COC(=O)c1ccc([C@H](NC(=O)c2ccco2)[C@]2(C)C[C@H]2C2CCCCC2)cc1	low value
Cc1ccc(S[C@]2(C(=O)O)CC(=O)N(Cc3cc(C(F)(F)F)cc(C(F)(F)F)c3)[C@@H]2c2ccc(CO)cc2)cc1	low value
O=c1n(-c2ccccc2)c(=O)n2n1CC(COc1ccccc1)=C([C@H](O)CCc1ccccc1)[C@@H]2CO	low value
CC(CO)N1C(=O)[C@@H]2[C@H]3C(=O)OCC=C[C@H]3OC23C=CCN(C(C)(C)C)C(=O)[C@@H]13 (stereo not given in full)	low value
COc1ccc(NC(=O)O[C@H]2[C@H](OC(=O)Nc3ccccc3)[C@H](OC(=O)Nc3ccccc3)[C@@H](OC)O[C@@H]2CO)cc1	high value
COCCOC(=O)N1C(=O)[C@@]2(c3cc(C#Cc4ccc(OC)cc4)ccc31)[C@H](c1ccccc1OCCO)N1[C@H](c3ccccc3)[C@H](c3ccccc3)OC(=O)[C@H]1[C@@H]2C(=O)N1CCCCCCC1	high value
CC(C)(C)N1CC=CC23O[C@@H]4C=CCCOC(=O)C4[C@H]2C(=O)N(CCO)[C@@H]3C1=O (stereo not given in full)	low value
O=C1C=C(c2ccccc2)C(=O)c2ccc([C@H]3Oc4ccccc4S(=O)(=O)N4CCC[C@@H]34)cc21	high value
O=C1NC(=O)C2C1C=CC(C(O)CCc1ccccc1)N2Nc1ccc(Cl)cc1Cl (stereo not given)	high value

* * *

// z-score lookup, one value per entry
- test method notes: basal HepG2 mitochondrial membrane potential changes, profiling panel, cell-based, JC-1 fluorescence, 24 h, 100 nL compound (AID 1167); also: test concentration not given here
- condition summary: higher = more signal

compound	z-score
[N-]=[N+]=Nc1ccccc1C[C@]1(C(N)=O)N=C(c2ccc(OCCCO)cc2)O[C@H]1c1ccccc1N=[N+]=[N-]	-1.04
COC(=O)[C@@]1(Cc2ccc(F)cc2)[C@H]2c3cc(C(=O)N(C)C)n(CCc4ccc(O)c(OC)c4)c3C[C@H]2CN1C(=O)c1ccccc1	-0.27
C=C[C@@H](COC(C)=O)N(C(=O)OC(C)(C)C)S(=O)(=O)c1ccc(Br)cc1	0.515
CN(C)C(=O)C1N=C(c2ccc(OCCCO)cc2)N(c2ccccc2)O1 (stereo not drawn)	0.261
[N-]=[N+]=NCc1ccccc1C[C@@]1(C(=O)N2CCCCC2)N=C(c2ccc(OCCCO)cc2)O[C@@H]1c1ccccc1	0.622
COc1ccc([Si](C)(C)[C@@H]2[C@@H](CC(=O)N3Cc4ccccc4C[C@H]3CO)O[C@]3(C(=O)N(Cc4cccc(N5C(=O)c6cccc7cccc5c67)c4)c4ccccc43)[C@H]2C)cc1	-0.715
COCCOC(=O)N1C(=O)[C@@]2(c3cc(C#CCNC(N)=O)ccc31)[C@H](C(=O)N1CCc3cc(OC)c(OC)cc3C1)[C@H]1C(=O)O[C@H](c3ccccc3)[C@H](c3ccccc3)N1[C@@H]2c1ccccc1OCCO	-1.2
COC(=O)C(CC#Cc1ccc2c(c1)[C@]1(C(=O)N2)[C@H](c2ccccc2OCCO)N2[C@H](c3ccccc3)[C@H](c3ccccc3)OC(=O)[C@H]2[C@@H]1C(=O)NC[C@H](O)c1ccccc1)C(=O)OC	-1.12
COc1cc2c(cc1OC)CN(C(=O)[C@@H]1[C@H]3C(=O)O[C@H](c4ccccc4)[C@H](c4ccccc4)N3[C@H](c3ccc(OCCO)cc3)[C@@]13C(=O)Nc1ccc(C#CC4(O)CCCCCC4)cc13)CC2	-0.555
C=CCNC(=O)[C@H]1[C@@H]2C(=O)O[C@@H](c3ccccc3)[C@@H](c3ccccc3)N2[C@@H](c2ccc(O)cc2)[C@]12C(=O)N(C(=O)OCCOC)c1ccccc12	-1.67
CN1C(=O)C2C=CC(C(O)COCc3ccccc3)N(N(c3ccccc3)c3ccccc3)C2C1=O (stereo not drawn)	0.0589
CCCCC(=C=CC[C@@H](O)c1ccccc1OCCO)C[C@@H](O)COCc1ccccc1	0.554
C=CCC(OC(C)=O)[C@@H]1[C@@H](N(Cc2cccc3ccccc23)C(=O)Cc2ccc(OC)cc2)c2cc(OCCCO)ccc2N1C(=O)c1ccc2ccccc2n1 (stereo partly drawn)	1.64
COc1ccccc1CN1C(=O)c2ccccc2[C@](Cc2ccccc2I)(C(=O)NCC(F)(F)F)[C@@H]1c1ccc(CO)cc1	0.349
O=C1NC(=O)C2C1C=CC(C(O)c1c(F)cccc1Cl)N2Nc1ccc(Cl)cc1Cl (stereo not drawn)	-3.44
CCCCN1CC=CC23O[C@@H]4/C=C\CCC(C)OC(=O)C4[C@H]2C(=O)N(C(CO)C(C)C)[C@@H]3C1=O (stereo partly drawn)	-0.403
Cn1cccc1C(O)C1C=CC2C(=O)NC(=O)C2N1Nc1ccc(Cl)cc1Cl (stereo not drawn)	-2.72
CCCCCCc1nc(-c2cc(C)c(OC)c(C)c2)c(C)c2c1[Si](C(C)C)(C(C)C)OC2	0.797
C=CCC(OC(C)=O)[C@@H]1[C@@H](N(Cc2ccc(-c3cccc(C(F)(F)F)c3)o2)C(=O)c2ccc(C)cc2)c2cc(OCCCO)ccc2N1C(=O)c1ccc2ccccc2c1 (stereo partly drawn)	3.41
COC(=O)[C@@]1(Cc2ccc(OC)cc2)[C@H]2c3cc(C(=O)N4CCCC4)n(Cc4c(-c5ccccc5)noc4C)c3C[C@H]2CN1C(=O)c1ccccc1	0.128
C[N+](C)(C)CCCC[C@@H]1NC(=O)[C@H]2C[C@@H](C(=O)NCCCCCCN)[C@@H](c3ccc(O)cc3)N2C1=O	1.28
COCCCNC(=O)[C@@]1(Sc2ccc(C)cc2)CC(=O)N(C2CCCCC2)[C@@H]1c1ccc(CO)cc1	-0.155
O=C(CS)NCCCCCNC(=O)[C@@H]1C[C@@H]2C(=O)N3CCC[C@H]3C(=O)N2[C@@H]1c1cccc(OCCO)c1	0.266
CC(C)C[C@@H]1NC(=O)[C@@H]2C[C@H](C(=O)NCCCCCN)[C@H](c3ccc(O)cc3)N2C1=O	-0.502
C[C@]1(C(=O)NC2CC2)c2ccccc2C(=O)N(Cc2ccccc2)[C@H]1c1ccc(CO)cc1	1.66
C[N+](C)(C)CCCCCCNC(=O)[C@H]1C[C@H]2C(=O)N[C@@H](Cc3ccccc3)C(=O)N2[C@H]1c1ccc(O)cc1	-0.216
CC(C)(C)OC(=O)CC[C@@]1(C(=O)NCc2ccccc2)N=C(c2ccc(OCCCO)cc2)O[C@@H]1c1ccccc1N=[N+]=[N-]	0.515
CCOc1cc(C(O)C2C=CC3C(=O)N(c4ccccc4)C(=O)C3N2Nc2ccc(C#N)cc2)ccc1O (stereo not drawn)	-2.67
